Taken from the supplement of paper PMC12636033.

tested on: WT Max(13-93) synthetic (M65Nle); assay: PBM 8-mer E-score (E-score (rank enrichment, -0.5 to 0.5)); higher = stronger preferential binding
Whole data set: some 33,000 sequences, median “E-score (rank enrichment, -0.5 to 0.5)” near -0.0075, cut for the highest 2% near 0.23. What follows is part of a selection rich in the highest values, with near analogues and random picks from the rest.
assay-readout: PBM 8-mer E-score
Could you respond with only the numeric value?

[[record]]
sequence_data = "AGCACGCA"
assay_readout = "PBM 8-mer E-score"
readout_number = "-5e-06"


Q: Which PBM 8-mer E-score value is on record for ATCACGCA ?
Ans: 0.0746

Q: Which PBM 8-mer E-score value is on record for GGATGATA ?
Ans: -0.00911

Q: Which PBM 8-mer E-score value is on record for ATCACGTA ?
Ans: 0.174

Q: Which PBM 8-mer E-score value is on record for ATATGATA ?
Ans: 0.302

Q: Which PBM 8-mer E-score value is on record for AGCACGCG ?
Ans: 0.258

----------
test system: WT Max(13-93) synthetic (M65Nle); assay: PBM 8-mer E-score (E-score (rank enrichment, -0.5 to 0.5)); higher = stronger preferential binding
The full ranking holds about 33,000 sequences; the median of “E-score (rank enrichment, -0.5 to 0.5)” is about -0.0075, and the highest 2% start at about 0.23. Only a selection was taken, and the highest values are over-represented in it overall.
assay-readout: PBM 8-mer E-score
Could you respond with only the numeric value?

[[record]]
sequence_data = "CTATGGTA"
study_target = "WT Max(13-93) synthetic (M65Nle)"
readout_number = 0.0296

[[record]]
sequence_data = "CACCTTCA"
study_target = "WT Max(13-93) synthetic (M65Nle)"
readout_number = -0.109


Q: Which PBM 8-mer E-score value is on record for CACACGTG ?
Ans: 0.476

Q: Which PBM 8-mer E-score value is on record for GTCGAAAC ?
Ans: 0.079

Q: Which PBM 8-mer E-score value is on record for ATTTCTAG ?
Ans: 0.0411

Q: Which PBM 8-mer E-score value is on record for CCCATACA ?
Ans: 0.0285

Q: Which PBM 8-mer E-score value is on record for ATATGGTA ?
Ans: 0.241

Q: Which PBM 8-mer E-score value is on record for AAGGACAA ?
Ans: -0.103

Q: Which PBM 8-mer E-score value is on record for CGCTTAAG ?
Ans: -0.0549

Q: Which PBM 8-mer E-score value is on record for AAGTGGAT ?
Ans: -0.0604

Q: Which PBM 8-mer E-score value is on record for ACCCCGCC ?
Ans: 0.279

Q: Which PBM 8-mer E-score value is on record for CACACGTA ?
Ans: 0.0918

Q: Which PBM 8-mer E-score value is on record for AAATGGTA ?
Ans: 0.253

----------
test system: WT Max(13-93) synthetic (M65Nle); assay: PBM 8-mer E-score (E-score (rank enrichment, -0.5 to 0.5)); higher = stronger preferential binding
The full ranking holds about 33,000 sequences; the median of “E-score (rank enrichment, -0.5 to 0.5)” is about -0.0075, and the highest 2% start at about 0.23. Only a selection was taken, and the highest values are over-represented in it overall.
assay-readout: PBM 8-mer E-score
Could you respond with only the numeric value?

As a guide, the following entries are already answered.
[[record]]
sequence_data = "CTGATGTA"
assay_readout = "PBM 8-mer E-score"
readout_number = 0.0268

[[record]]
sequence_data = "ATACATTG"
assay_readout = "PBM 8-mer E-score"
readout_number = 0.168

[[record]]
sequence_data = "AATACCAT"
assay_readout = "PBM 8-mer E-score"
readout_number = 0.239


Q: Which PBM 8-mer E-score value is on record for CGCTGCAA ?
Ans: -0.0409

Q: Which PBM 8-mer E-score value is on record for ACGTGACC ?
Ans: 0.298

Q: Which PBM 8-mer E-score value is on record for GAACCTAA ?
Ans: -0.143

Q: Which PBM 8-mer E-score value is on record for ACGTGAGA ?
Ans: 0.208

Q: Which PBM 8-mer E-score value is on record for GTAGGTAA ?
Ans: 0.232

Q: Which PBM 8-mer E-score value is on record for AGTATTTA ?
Ans: 0.186
